# assay_summary: proliferation blockers of H69AR lung cancer cells, primary screen, cell-based, human, 86K library (AID 598);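 also: multidrug resistant small cell line overexpressing MRP-1 efflux transporter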
# condition_set: H69AR lung tumor viability, ATP luminescence, 72 h; at 10 µM
Out of some 85,000 compounds screened, about 5,100 (6%) were called active.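 The calls were made as follows: active = viability at or below 40%; inactive = viability above 40%.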 For the sample, actives were picked, then their nearest neighbours and some compounds at random.
Outcomes: active, inactive

- compound: "O=C1C=C(c2ccc(Cl)cc2)C(=O)N1Nc1ccccc1"
  assigned_label: "active"
- compound: "CCNC(=O)c1sccc1-n1cccc1"
  assigned_label: "inactive"
- compound: "C=CCn1c(SCCOc2ccc(OC)cc2)nnc1C(NC(=O)c1ccc(OC)cc1)C(C)C (centres undefined)"
  assigned_label: "inactive"
- compound: "Cc1cccc(NC(=O)C2CC(=O)OC23CCCC3)c1 (centres undefined)"
  assigned_label: "inactive"
- compound: "C=CCc1ccc(OCCOc2cccc(/C=N/n3cnnc3)c2)c(OC)c1"
  assigned_label: "inactive"
- compound: "COc1ccc2oc(=O)c(C(=O)N3CCN(c4ccccc4F)CC3)cc2c1"
  assigned_label: "inactive"
- compound: "O=C(Nc1ncc2c(n1)CC(c1ccco1)CC2=O)c1ccc(Cl)cc1 (centres undefined)"
  assigned_label: "inactive"
- compound: "CCC(c1nnnn1Cc1ccco1)N(Cc1cc2cc(OC)ccc2[nH]c1=O)C1CCCCC1 (centres undefined)"
  assigned_label: "inactive"
- compound: "COc1cc(CC(=O)NCc2cccs2)cc(OC)c1OC"
  assigned_label: "inactive"
- compound: "COc1cc(C2CC(=O)c3cnc(NC(C)=O)nc3C2)cc(OC)c1OC (centres undefined)"
  assigned_label: "inactive"
- compound: "CC(C)(C)n1nnnc1C(c1ccc(Cl)cc1)N1CCSCC1 (centres undefined)"
  assigned_label: "inactive"
- compound: "Clc1ccc(C2CC(c3cccs3)n3ncnc3N2)cc1Cl (centres undefined)"
  assigned_label: "active"
- compound: "COc1ccccc1C(c1nnnn1C(C)(C)C)N1CCN(Cc2ccccc2)CC1 (centres undefined)"
  assigned_label: "inactive"
- compound: "COC(=O)CSc1nc(C)c2ccc(OC)cc2n1"
  assigned_label: "inactive"
- compound: "COc1ccc(C2CC(c3ccccc3)Nc3ncnn32)cc1 (centres undefined)"
  assigned_label: "inactive"
- compound: "O=C(COc1ccc2ccccc2c1)N1CCN(C(=O)c2cccs2)CC1"
  assigned_label: "inactive"
- compound: "CCOC(=O)c1c(C)nc2c(c1C)c(=O)oc1ccccc12"
  assigned_label: "inactive"
- compound: "Cc1ccc(OCC(=O)N2CCN(C(=O)c3cccnc3)CC2)cc1"
  assigned_label: "inactive"
- compound: "CS(=O)(=O)n1nc(-c2ccccc2)nc1NCc1ccco1"
  assigned_label: "inactive"
- compound: "O=S(=O)(NCC1OCCc2ccccc21)c1ccccc1 (centres undefined)"
  assigned_label: "inactive"
- compound: "CCOC(=O)Cc1csc(NC(=O)Nc2ccccc2)n1"
  assigned_label: "inactive"
- compound: "Cc1c(Nc2nc3ccccc3nc2NS(=O)(=O)c2cccs2)c(=O)n(-c2ccccc2)n1C"
  assigned_label: "inactive"
- compound: "COC(=O)c1ccccc1NC(=O)CSc1nnnn1C"
  assigned_label: "inactive"
- compound: "Cn1cc(S(=O)(=O)N2CCN(c3ccc(F)cc3)CC2)c(=O)n(C)c1=O"
  assigned_label: "inactive"

====

# assay_summary: proliferation blockers of H69AR lung cancer cells, primary screen, cell-based, human, 86K library (AID 598);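 also: multidrug resistant small cell line overexpressing MRP-1 efflux transporter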
# condition_set: H69AR lung tumor viability, ATP luminescence, 72 h; at 10 µM
Among all 85,000 compounds or so, about 5,100 (6%) were called active.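 The calls were made as follows: active = viability at or below 40%; inactive = viability above 40%.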 What follows is part of a selection rich in actives, with near analogues and random picks from the rest.
Labels: active, inactive

- molecule: "Cc1cc(=O)[nH]c(SCc2cccc(F)c2)n1"
  assigned_label: "inactive"
- molecule: "CSc1ccc(-c2c(C#N)c(N)nc3c2c(C)nn3-c2ccccc2)cc1"
  assigned_label: "inactive"
- molecule: "O=C(Nc1nnc(C2CC2)s1)c1ccccn1"
  assigned_label: "inactive"
- molecule: "CSc1nc(N)c(C#N)c(-c2ccccc2Cl)c1C#N"
  assigned_label: "active"
- molecule: "Cc1ccc(-n2c(CNc3ccc(F)cc3)nnc2SCC(=O)N2CCOCC2)cc1"
  assigned_label: "inactive"
- molecule: "CCCCN1C(=O)/C(=C2/C=CC=CN2C)SC1=S"
  assigned_label: "inactive"
- molecule: "N#Cc1c(N)nc2c3c(sc(=N)c2c1N)NC(=O)CC3c1ccccc1Cl (stereo unspecified)"
  assigned_label: "inactive"
- molecule: "CCOC(=O)C1CSC(CC(=O)Nc2ccc(OCC)cc2)C(=O)N1 (stereo unspecified)"
  assigned_label: "inactive"
- molecule: "Cc1cccc(NC(=O)N(Cc2cc3cc(C)cc(C)c3[nH]c2=O)CC2COCCO2)c1 (stereo unspecified)"
  assigned_label: "inactive"
- molecule: "CCN(CC(=O)NCc1cccs1)c1nnnn1-c1ccccc1"
  assigned_label: "active"
- molecule: "Cc1cc(-n2nc(C)cc2C)n2nc(C)c(-c3ccccc3)c2n1"
  assigned_label: "inactive"
